Every entry's value here was drawn from patent US20250353873A1.

test system: human APOE RNA; experiment: Dose-dependent inhibition of human APOE RNA in HepG2 cells, electroporation, 50,000 cells per well, RT-PCR normalized to GAPDH (Example 4, Tables 8-10); type: cell-based; conditions: 33 nM; HepG2, electroporation, 24-hour treatment
Strand notation (5' to 3'): a small letter for the sugar, then the base; units joined by * are phosphorothioate-linked, units joined directly phosphodiester-linked; [ ] holds rarer units or linkages, { } end groups; capitals alone tell only the bases. [ms] = mesyl phosphoramidate linkage; k = constrained ethyl (cEt); [5mC] = 5-methylcytosine; d = 2'-deoxy (DNA)
endpoint: APOE RNA (% UTC)
Answers are plain numbers, in % UTC.

Recorded results for 4 substances are shown here.
1746797 (k[5mC]*kT*dT[ms]dG[ms]dG[ms]kT*dG[ms]dA[ms]dA[ms]dT*d[5mC]*dT*dT*dT*dA[ms]dT*kT*dA[ms]kA*kA; antisense) [Compound 1746797] :: 150
1746787 (k[5mC]*kT*dT[ms]dG[ms]dG[ms]kT*dG[ms]dA[ms]dA[ms]dT*d[5mC]*dT*dT*dT*dA[ms]dT*kT*kA*dA[ms]kA; antisense) [Compound 1746787] :: 92
1746793 (k[5mC]*dT[ms]dT[ms]dG[ms]kG*kT*dG[ms]dA[ms]dA[ms]dT*d[5mC]*dT*dT*dT*dA[ms]dT*kT*kA*dA[ms]kA; antisense) [Compound 1746793] :: 96
1746811 (k[5mC]*dT[ms]dT[ms]kG*kG*dT[ms]dG[ms]dA[ms]dA[ms]dT*d[5mC]*dT*dT*dT*dA[ms]dT*dT[ms]kA*kA*kA; antisense) [Compound 1746811] :: 83

Next up:
// fetch human APOE RNA APOE RNA (% UTC) for 1746800 (k[5mC]*dT[ms]kT*dG[ms]dG[ms]kT*dG[ms]dA[ms]dA[ms]dT*d[5mC]*dT*dT*dT*dA[ms]dT*kT*dA[ms]kA*kA; antisense) [Compound 1746800]
137

====

Test system: human APOE RNA
Assay: Potency (dose response, ED50) in APOE C57BL/6NTac-Apoeem7250 knock-in mice, 8 weeks (Example 15)
Format: in vivo
Conditions: cortex, ICV dose 100 μg
Description: Modified oligonucleotides described above were tested in the APOE C57BL/6NTac-Apoeem7250 knock-in mouse model described above. APOE C57BL/6NTac-Apoeem7250 knock-in mice were divided into groups of 3-4 mice each. […] Eight weeks post treatment, mice were sacrificed, and RNA was extracted from cortical brain tissue and spinal cord for quantitative real-time RT-PCR analysis of RNA expression of […] using human primer probe set RTS3073 (described herein above). […]
Strand notation (5' to 3'): a small letter for the sugar, then the base; units joined by * are phosphorothioate-linked, units joined directly phosphodiester-linked; [ ] holds rarer units or linkages, { } end groups; capitals alone tell only the bases. [ms] = mesyl phosphoramidate linkage; e = 2'-O-(2-methoxyethyl) (MOE); k = constrained ethyl (cEt); [5mC] = 5-methylcytosine; d = 2'-deoxy (DNA)
endpoint: APOE RNA (% control) Cortex
Answers are plain numbers, in % control.

Aes^mCeoTeoTesGesGksTdsGdzAdzAdzTds^mCdsTdsTdsTdsAdzTksTksAesAe (eA*e[5mC]eTeT*eG*kG*dT*dG[ms]dA[ms]dA[ms]dT*d[5mC]*dT*dT*dT*dA[ms]kT*kT*eA*eA) [Compound No. 1757576] :: 52

# next substance below
APOE RNA (% control) Cortex for TezTeoGeoGksTdsGdzAdzAdzTds^mCdsTdsTdsTdsAdzTksTksAesAesAes^mCe (antisense eT[ms]eTeGkG*dT*dG[ms]dA[ms]dA[ms]dT*d[5mC]*dT*dT*dT*dA[ms]kT*kT*eA*eA*eA*e[5mC]) [Compound No. 1809814] ?
72

====

test system: human APOE RNA; experiment: Dose-dependent inhibition of human APOE RNA in HepG2 cells, electroporation, 50,000 cells per well, RT-PCR normalized to GAPDH (Example 4, Tables 8-10); assay type: cell-based; settings: HepG2 cells, electroporation, 24-hour treatment, 205 nM, Table 8
Strand notation (5' to 3'): a small letter for the sugar, then the base; units joined by * are phosphorothioate-linked, units joined directly phosphodiester-linked; [ ] holds rarer units or linkages, { } end groups; capitals alone tell only the bases. [ms] = mesyl phosphoramidate linkage; e = 2'-O-(2-methoxyethyl) (MOE); k = constrained ethyl (cEt); [5mC] = 5-methylcytosine; d = 2'-deoxy (DNA)
endpoint: APOE RNA (% UTC) 205 nM
One number for each entry, in % UTC.

Some solved entries appear below for comparison.
1778123: modified oligonucleotide complementary to human APOE RNA (eA*e[5mC]eTeTeG*eG*dT*dG[ms]dA[ms]dA*dT*d[5mC]*dT*dT*dT*dA[ms]kTkT*eA*eA; antisense) [compound 1778123] :: 55
1785604: modified oligonucleotide complementary to human APOE RNA (k[5mC]*dT[ms]dT[ms]kG*dG[ms]kT*dG[ms]dA[ms]dA*dT*d[5mC]*dT*dT*dT*dA*dT*kT*kA*dA[ms]kA; antisense) [compound 1785604] :: 69
1778131: modified oligonucleotide complementary to human APOE RNA (eA*e[5mC]eTeTeGkG*dT*dG[ms]dA[ms]dA*dT*d[5mC]*dT*dT*dT*dA[ms]kTkT*eA*eA; antisense) [compound 1778131] :: 71

Record APOE RNA (% UTC) 205 nM per entry; entries follow.
1. ^mCksTksTksGdzGdzTdzGdzAdzAdzTds^mCdsTdsTdsTdsAdsTdsTksAksAdzAk (antisense k[5mC]*kT*kT*dG[ms]dG[ms]dT[ms]dG[ms]dA[ms]dA[ms]dT*d[5mC]*dT*dT*dT*dA*dT*kT*kA*dA[ms]kA) [Compound No. 1785602]
2. 1778127: modified oligonucleotide complementary to human APOE RNA (eA*e[5mC]eTeTkGkG*dT*dG[ms]dA[ms]dA*dT*d[5mC]*dT*dT*dT*dA[ms]kTeT[ms]eA[ms]eA; antisense) [compound 1778127]
3. 1778154: modified oligonucleotide complementary to human APOE RNA (e[5mC]*eT*eTeGeGeT*dG[ms]dA[ms]dA*dT*d[5mC]*dT*dT*dT*dA*dT*kTkAeA*eA; antisense) [compound 1778154]

55
55
76

====

tested on: human APOE RNA; test: Activity in APOE C57BL/6NTac-Apoeem7250 knock-in mice, single ICV bolus, 16 weeks (Example 12); type: in vivo; conditions: cortex; single ICV bolus 300 μg; 16 weeks post treatment; normalized to mouse Ppia
Strand notation (5' to 3'): a small letter for the sugar, then the base; units joined by * are phosphorothioate-linked, units joined directly phosphodiester-linked; [ ] holds rarer units or linkages, { } end groups; capitals alone tell only the bases. [ms] = mesyl phosphoramidate linkage; e = 2'-O-(2-methoxyethyl) (MOE); [5mC] = 5-methylcytosine; d = 2'-deoxy (DNA)
endpoint: APOE RNA (% control) Cortex
Answers are plain numbers, in % control.

1693073: 5-10-5 MOE gapmer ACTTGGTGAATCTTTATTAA, linkages sssossszzzzzsssssss (eA*e[5mC]*eT*eTeG*dG*dT*dG[ms]dA[ms]dA[ms]dT[ms]d[5mC][ms]dT*dT*dT*eA*eT*eT*eA*eA) [compound 1693073] :: 107

So what does the record say about APOE RNA (% control) Cortex for 1681005: 5-10-5 MOE gapmer GGTGAATCTTTATTAAACTA, linkages ssssszsssszzszsssss (antisense eG*eG*eT*eG*eA*dA[ms]dT*d[5mC]*dT*dT*dT[ms]dA[ms]dT*dT[ms]dA*eA*eA*e[5mC]*eT*eA) [compound 1681005] ?
116

====

system: human APOE RNA; assay: Duration of action study in APOE C57BL/6NTac-Apoeem7250 knock-in mice (Example 16); assay type: in vivo; details: spinal cord; 300 μg ICV; 140 days post-dose
Strand notation (5' to 3'): a small letter for the sugar, then the base; units joined by * are phosphorothioate-linked, units joined directly phosphodiester-linked; [ ] holds rarer units or linkages, { } end groups; capitals alone tell only the bases. [ms] = mesyl phosphoramidate linkage; k = constrained ethyl (cEt); [5mC] = 5-methylcytosine; d = 2'-deoxy (DNA)
Would you mind labelling by APOE RNA (% control) Spinal Cord? At or over 80 % control is Met, under is Not met.

Worked examples, 2 substances total:
1746810 (k[5mC]*dT[ms]kT*dG[ms]dG[ms]kT*dG[ms]dA[ms]dA[ms]dT*d[5mC]*dT*dT*dT*dA[ms]dT*dT[ms]kA*kA*kA; antisense) [Compound 1746810] :: Met
1746800 (k[5mC]*dT[ms]kT*dG[ms]dG[ms]kT*dG[ms]dA[ms]dA[ms]dT*d[5mC]*dT*dT*dT*dA[ms]dT*kT*dA[ms]kA*kA; antisense) [Compound 1746800] :: Not met

API: the following record is the query input.
Item 1747050 (k[5mC]*kT*kT*dG[ms]dG[ms]kT*dG[ms]dA[ms]dA[ms]dT*d[5mC]*dT*dT*dT*dA[ms]dT*kT*dA[ms]dA[ms]kA; antisense) [Compound 1747050] with APOE RNA (% control) Spinal Cord of 80 % control or above?
Met
